Reference source for all entries: ChEMBL document CHEMBL4376814

- experimental_protocol: Half life in Beagle dog liver microsomes at 2 uM in presence of NADPH measured up to 1 hr by HPLC analysis
- Assay type: ADME, Canis lupus familiaris, Microsome
property_label: half-life at 2 µM (min)
Value expressed in min; do not type the unit.

The reported value for CN(C)C(=O)c1cc2cnc(Nc3ccc(NC(=O)CCCCCCCN=C=S)cc3)nc2n1C1CCCC1 in terms of half-life at 2 µM is 26.7

---

Reported values of inhibition for individual entries
- target_desc: CDK9/cyclin T1 (Homo sapiens) (UniProt O60563+P50750)
- experimental_protocol: Inhibition of recombinant full-length human CDK9/cyclinT1 at 500 nM using KTFCGTPEYLAPEVRREPRILSEEEQEMFRDFDYIADWC peptide as substrate measured after 40 mins in presence of [gamma33P]ATP by scintillation counting method relative to control
- Format: protein-complex assay
Value expressed in %; do not type the unit.

Recorded results for 3 compounds are shown here.
> print(dat)
                           structure.smiles  property.label  unit.name  reported.result
1  CN(C)C(=O)c1cc2cnc(Nc3ccc(C(=O)NCCCN=C=S)cc3O)nc2n1C1CCCC1      inhibition          %               90
2  CN(C)C(=O)c1cc2cnc(Nc3ccc(C(=O)NCCCCCCCN=C=S)cc3F)nc2n1C1CCCC1      inhibition          %               90
3  CN(C)C(=O)c1cc2cnc(Nc3ccc(NC(=O)CCCN=C=S)cc3)nc2n1C1CCCC1      inhibition          %               99

The reported value for O=C(CCCCCCCN=C=S)Nc1ccc(Nc2ncc3nnn(C4CCCC4)c3n2)cc1 in terms of inhibition is 34

The reported value for CN(C)C(=O)c1cc2cnc(Nc3ccc(C(=O)NCCCCCCCN=C=S)cc3O)nc2n1C1CCCC1 in terms of inhibition is 7

---

- target_desc: CDK9/cyclin T1 (Homo sapiens) (UniProt O60563+P50750)
- experimental_protocol: Inhibition of recombinant full-length human CDK9/cyclinT1 at 1 uM using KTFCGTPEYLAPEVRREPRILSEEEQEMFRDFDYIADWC peptide as substrate measured after 40 mins in presence of [gamma33P]ATP by scintillation counting method relative to control
- Assay type: protein-complex assay
Reported values of inhibition for individual entries

Recorded results for 4 compounds are shown here.
> print(dat)
                           structure.smiles  reported.result
1  CN(C)C(=O)c1cc2cnc(Nc3ccc(C(=O)NCCCCN=C=S)cn3)nc2n1C1CCCC1              85%
2  CN(C)C(=O)c1cc2cnc(Nc3ccc(C(=O)NCCCCCN=C=S)cc3F)nc2n1C1CCCC1              96%
3  CN(C)C(=O)c1cc2cnc(NNC(=O)CCCCCCCN=C=S)nc2n1C1CCCC1              17%
4  CN(C)C(=O)c1cc2cnc(Nc3ccc(N4CCNCC4)cn3)nc2n1C1CCCC1              84%

The reported value for CN(C)C(=O)c1cc2cnc(Nc3ccc(NC(=O)CCCCCN=C=S)cc3)nc2n1C1CCCC1 in terms of inhibition is 97%

---

- target_desc: CDK9/cyclin T1 (Homo sapiens) (UniProt O60563+P50750)
- experimental_protocol: Inhibition of recombinant full-length human CDK9/cyclinT1 at 500 nM using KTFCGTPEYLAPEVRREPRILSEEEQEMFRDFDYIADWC peptide as substrate measured after 40 mins in presence of [gamma33P]ATP by scintillation counting method relative to control
- Type: protein-complex assay
property_label: inhibition (%)
Value expressed in %; do not type the unit.

Recorded results for 3 compounds are shown here.
> print(dat)
                           structure.smiles                               target.desc  reported.result
1  CN(C)C(=O)c1cc2cnc(Nc3ccc(NC(=O)CCCCCCCN=C=S)cc3C(F)(F)F)nc2n1C1CCCC1  CDK9/cyclin T1 (Homo sapiens) (UniProt O60563+P50750)               79
2  CN(C)C(=O)c1cc2cnc(Nc3ccc(S(=O)(=O)NCCCCCN=C=S)cc3)nc2n1C1CCCC1  CDK9/cyclin T1 (Homo sapiens) (UniProt O60563+P50750)               95
3  CN(C)C(=O)c1cc2cnc(Nc3ccc(NC(=O)CCCCN=C=S)cc3)nc2n1C1CCCC1  CDK9/cyclin T1 (Homo sapiens) (UniProt O60563+P50750)               99

The reported value for CN(C)C(=O)c1cc2cnc(Nc3ccc(C(=O)NCCCCCCN=C=S)cc3)nc2n1C1CCCC1 in terms of inhibition is 67

The reported value for CN(C)C(=O)c1cc2cnc(Nc3ccc(C(=O)NCCCN=C=S)cc3)nc2n1C1CCCC1 in terms of inhibition is 100

The reported value for CN(C)C(=O)c1cc2cnc(Nc3ccc(S(=O)(=O)NCCCCCCCN=C=S)cc3)nc2n1C1CCCC1 in terms of inhibition is 97

The reported value for CN(C)C(=O)c1cc2cnc(Nc3ccc(C(=O)NCCCCCN=C=S)cc3)nc2n1C1CCCC1 in terms of inhibition is 97

The reported value for CN(C)C(=O)c1cc2cnc(Nc3ccc(S(=O)(=O)NCCCCCCN=C=S)cc3)nc2n1C1CCCC1 in terms of inhibition is 98

---

- target_desc: CDK9/cyclin T1 (Homo sapiens) (UniProt O60563+P50750)
- experimental_protocol: Inhibition of recombinant full-length human CDK9/cyclinT1 at 1 uM using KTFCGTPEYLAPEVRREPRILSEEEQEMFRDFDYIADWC peptide as substrate measured after 40 mins in presence of [gamma33P]ATP by scintillation counting method relative to control
- Type: protein-complex assay
property_label: inhibition (%)
Value expressed in %; do not type the unit.

Recorded results for 5 molecules are shown here.
> print(dat)
                           structure.smiles                               target.desc  reported.result
1  CN(C)C(=O)c1cc2cnc(Nc3ccc(C(=O)NCCCCN=C=S)cc3F)nc2n1C1CCCC1  CDK9/cyclin T1 (Homo sapiens) (UniProt O60563+P50750)               96
2  CN(C)C(=O)c1cc2cnc(Nc3ccc(C(=O)NCCCN=C=S)cn3)nc2n1C1CCCC1  CDK9/cyclin T1 (Homo sapiens) (UniProt O60563+P50750)               84
3  CN(C)C(=O)c1cc2cnc(Nc3ccc(C(=O)NCCCCCCCN=C=S)cn3)nc2n1C1CCCC1  CDK9/cyclin T1 (Homo sapiens) (UniProt O60563+P50750)               73
4  O=C(CCCCCCCN=C=S)Nc1ccc(Nc2ncc3nnn(C4CCCC4)c3n2)cc1  CDK9/cyclin T1 (Homo sapiens) (UniProt O60563+P50750)               78
5  CN(C)C(=O)c1cc2cnc(Nc3ccc(N4CCN(C(=O)CCCCCCCN=C=S)CC4)cn3)nc2n1C1CCCC1  CDK9/cyclin T1 (Homo sapiens) (UniProt O60563+P50750)               58

The reported value for CN(C)C(=O)c1cc2cnc(Nc3ccc(NC(=O)CCCCN=C=S)cc3)nc2n1C1CCCC1 in terms of inhibition is 97

The reported value for CN(C)C(=O)c1cc2cnc(Nc3ccc(S(=O)(=O)NCCCN=C=S)cc3)nc2n1C1CCCC1 in terms of inhibition is 97

---

Reported values of inhibition for individual entries
- target_desc: CDK6/cyclin D3 (Homo sapiens) (UniProt P30281+Q00534)
- experimental_protocol: Inhibition of recombinant full-length human CDK6/cyclinD3 at 500 nM using histone H1 as substrate measured after 40 mins in presence of [gamma33P]ATP by scintillation counting method relative to control
- Format: protein-complex assay
Value expressed in %; do not type the unit.

> print(dat)
                           structure.smiles  property.label  reported.result
1  CN(C)C(=O)c1cc2cnc(Nc3ccc(C(=O)NCCCN=C=S)cc3)nc2n1C1CCCC1      inhibition               69
2  CN(C)C(=O)c1cc2cnc(Nc3ccc(C(=O)NCCCCCCN=C=S)cc3F)nc2n1C1CCCC1      inhibition               34
3  CN(C)C(=O)c1cc2cnc(Nc3ccc(S(=O)(=O)NCCCCCCN=C=S)cc3)nc2n1C1CCCC1      inhibition               41
4  CN(C)C(=O)c1cc2cnc(Nc3ccc(C(=O)NCCCCCCCN=C=S)cc3)nc2n1C1CCCC1      inhibition               56
5  CN(C)C(=O)c1cc2cnc(Nc3ccc(NC(=O)CCCCCN=C=S)cc3)nc2n1C1CCCC1      inhibition               64
6  CN(C)C(=O)c1cc2cnc(Nc3ccc(C(=O)NCCCCCN=C=S)cn3)nc2n1C1CCCC1      inhibition               55

The reported value for CN(C)C(=O)c1cc2cnc(Nc3ccc(S(=O)(=O)NCCCN=C=S)cc3)nc2n1C1CCCC1 in terms of inhibition is 59

The reported value for CN(C)C(=O)c1cc2cnc(Nc3ccc(C(=O)NCCCCCCN=C=S)cn3)nc2n1C1CCCC1 in terms of inhibition is 52

The reported value for CN(C)C(=O)c1cc2cnc(Nc3ccc(S(=O)(=O)NCCCCN=C=S)cc3)nc2n1C1CCCC1 in terms of inhibition is 64

The reported value for CN(C)C(=O)c1cc2cnc(Nc3ccc(NC(=O)CCCCN=C=S)cc3)nc2n1C1CCCC1 in terms of inhibition is 71

The reported value for CN(C)C(=O)c1cc2cnc(Nc3ccc(C(=O)NCCCN=C=S)cc3F)nc2n1C1CCCC1 in terms of inhibition is 41

The reported value for CN(C)C(=O)c1cc2cnc(Nc3ccc(C(=O)NCCCCN=C=S)cn3)nc2n1C1CCCC1 in terms of inhibition is 53

The reported value for CN(C)C(=O)c1cc2cnc(Nc3ccc(CNC(=O)CCCCCCCN=C=S)cc3)nc2n1C1CCCC1 in terms of inhibition is 63

The reported value for CN(C)C(=O)c1cc2cnc(Nc3ccc(C(=O)NCCCCCN=C=S)cc3)nc2n1C1CCCC1 in terms of inhibition is 79

The reported value for CN(C)C(=O)c1cc2cnc(Nc3ccc(C(=O)NCCCCCN=C=S)cc3F)nc2n1C1CCCC1 in terms of inhibition is 30
